Provenance of the data: ChEMBL document CHEMBL1629443

biological target: Tyrosine-protein kinase ABL1 (Homo sapiens); assay: Inhibition of ABL1 by flash plate based radioactive enzyme assay
Sequence (P00519 whole entry): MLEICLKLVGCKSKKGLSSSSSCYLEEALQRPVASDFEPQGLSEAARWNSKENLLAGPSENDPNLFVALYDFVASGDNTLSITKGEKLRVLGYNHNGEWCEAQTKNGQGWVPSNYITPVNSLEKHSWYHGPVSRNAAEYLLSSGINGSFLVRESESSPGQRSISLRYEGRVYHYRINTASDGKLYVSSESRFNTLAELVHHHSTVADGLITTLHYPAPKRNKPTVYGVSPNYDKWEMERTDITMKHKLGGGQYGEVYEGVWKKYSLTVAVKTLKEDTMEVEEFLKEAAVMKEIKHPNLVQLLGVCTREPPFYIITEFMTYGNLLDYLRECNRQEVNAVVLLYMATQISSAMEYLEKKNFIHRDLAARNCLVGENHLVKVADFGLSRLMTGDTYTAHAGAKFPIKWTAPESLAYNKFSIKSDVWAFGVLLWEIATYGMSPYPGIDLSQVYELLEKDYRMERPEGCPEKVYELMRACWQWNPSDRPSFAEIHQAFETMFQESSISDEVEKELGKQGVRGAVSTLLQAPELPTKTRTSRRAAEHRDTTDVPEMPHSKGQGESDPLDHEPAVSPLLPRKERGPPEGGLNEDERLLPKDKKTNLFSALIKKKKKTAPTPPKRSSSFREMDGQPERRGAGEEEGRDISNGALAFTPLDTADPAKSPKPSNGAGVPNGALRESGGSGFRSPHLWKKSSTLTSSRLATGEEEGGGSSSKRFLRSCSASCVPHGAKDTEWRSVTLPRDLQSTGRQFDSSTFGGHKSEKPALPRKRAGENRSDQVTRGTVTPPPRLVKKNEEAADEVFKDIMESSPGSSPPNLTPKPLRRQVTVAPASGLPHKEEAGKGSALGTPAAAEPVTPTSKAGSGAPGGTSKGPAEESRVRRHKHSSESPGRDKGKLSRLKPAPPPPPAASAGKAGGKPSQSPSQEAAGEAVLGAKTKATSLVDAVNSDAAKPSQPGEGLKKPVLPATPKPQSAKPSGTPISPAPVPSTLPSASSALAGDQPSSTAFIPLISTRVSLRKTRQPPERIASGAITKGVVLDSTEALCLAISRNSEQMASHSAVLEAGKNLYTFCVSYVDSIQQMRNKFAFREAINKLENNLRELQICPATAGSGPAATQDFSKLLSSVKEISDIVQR
observable: pIC50
Answers are plain numbers, as −log10 of the molar value.

smilesRepr	pIC50
O=C(NO)c1ccc(-c2ccc3ncnc(Nc4ccc(OCc5cccc(F)c5)c(Cl)c4)c3c2)s1	5.77

Which value of pIC50 has been reported for `Nc1ccccc1NC(=O)/C=C/c1cccc(-c2ccc3ncnc(Nc4ccc(OCc5cccc(F)c5)c(Cl)c4)c3c2)c1` in the records?
5.54

----------
target: Insulin receptor (Homo sapiens)
Sequence (P06213 28-758 limits assumed): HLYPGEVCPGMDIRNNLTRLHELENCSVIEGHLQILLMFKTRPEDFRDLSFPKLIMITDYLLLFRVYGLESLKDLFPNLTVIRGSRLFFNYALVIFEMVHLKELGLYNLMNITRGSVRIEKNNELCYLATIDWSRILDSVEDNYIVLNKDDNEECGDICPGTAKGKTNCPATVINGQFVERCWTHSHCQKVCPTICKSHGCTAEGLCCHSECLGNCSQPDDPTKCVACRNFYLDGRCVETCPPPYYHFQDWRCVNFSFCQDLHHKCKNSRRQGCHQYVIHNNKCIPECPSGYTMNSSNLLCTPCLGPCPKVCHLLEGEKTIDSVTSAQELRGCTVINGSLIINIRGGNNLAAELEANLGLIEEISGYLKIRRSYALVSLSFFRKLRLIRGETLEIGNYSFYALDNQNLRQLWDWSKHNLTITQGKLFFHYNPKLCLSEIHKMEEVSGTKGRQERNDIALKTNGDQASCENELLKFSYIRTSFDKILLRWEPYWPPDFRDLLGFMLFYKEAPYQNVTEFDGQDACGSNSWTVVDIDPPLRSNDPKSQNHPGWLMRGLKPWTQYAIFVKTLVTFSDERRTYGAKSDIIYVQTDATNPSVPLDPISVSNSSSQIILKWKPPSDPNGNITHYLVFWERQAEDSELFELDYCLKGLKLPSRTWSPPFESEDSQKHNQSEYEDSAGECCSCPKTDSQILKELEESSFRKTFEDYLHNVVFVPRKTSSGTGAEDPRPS
Sequence (P06213 763-1382 limits assumed): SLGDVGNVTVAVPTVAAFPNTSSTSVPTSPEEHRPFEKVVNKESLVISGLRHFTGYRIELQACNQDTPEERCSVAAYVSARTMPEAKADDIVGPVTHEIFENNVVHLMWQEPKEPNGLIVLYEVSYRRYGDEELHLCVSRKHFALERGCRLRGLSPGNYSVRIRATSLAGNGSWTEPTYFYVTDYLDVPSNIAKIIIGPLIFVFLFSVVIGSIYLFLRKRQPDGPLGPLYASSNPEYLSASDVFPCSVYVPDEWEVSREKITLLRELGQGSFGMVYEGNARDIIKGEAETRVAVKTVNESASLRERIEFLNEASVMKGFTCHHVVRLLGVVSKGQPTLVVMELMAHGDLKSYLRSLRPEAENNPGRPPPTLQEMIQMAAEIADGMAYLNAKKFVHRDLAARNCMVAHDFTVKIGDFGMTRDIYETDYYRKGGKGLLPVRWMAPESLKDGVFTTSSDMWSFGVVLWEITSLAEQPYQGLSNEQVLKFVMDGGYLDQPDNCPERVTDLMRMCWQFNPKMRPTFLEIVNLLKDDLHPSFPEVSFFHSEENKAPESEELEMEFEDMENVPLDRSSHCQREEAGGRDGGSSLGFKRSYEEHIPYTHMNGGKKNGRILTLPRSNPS
For each of the molecules below, state its IC50.
Answers are plain numbers, in µM.

Reference set (2 entries):
smilesRepr	readingUnit	experimentalResult
O=C(NO)c1ccc(-c2ccc3ncnc(Nc4ccc(OCc5cccc(F)c5)c(Cl)c4)c3c2)s1	µM	1.7
Nc1ccccc1NC(=O)/C=C/c1ccc(-c2ccc3ncnc(Nc4ccc(OCc5cccc(F)c5)c(Cl)c4)c3c2)o1	µM	5.5

Consider the additional molecule presented here.
Item under review: `Nc1ccccc1NC(=O)/C=C/c1cccc(-c2ccc3ncnc(Nc4ccc(OCc5cccc(F)c5)c(Cl)c4)c3c2)c1` . Reported IC50?
2.8
